Measured values drawn from ChEMBL document CHEMBL1155832 for this set.

- method.summary: Therapeutic index, ratio of CC50 for BHK15 cells to EC50 IRES-luciferase tagged Yellow fever virus
- Format: cell-based
- test.conditions: hamster, read-out: Ratio CC50/EC50
Mark 1 for reported selectivity ratio of 5 or greater; mark 0 for anything smaller.

# bool: selectivity ratio of Cc1nc(-n2nc(-c3ccccc3)cc2-c2ccccc2)sc1C(=O)/C=C/c1ccc(Cl)c(Cl)c1 >= 5
0

Is selectivity ratio at least 5? Consider CC(=O)c1ccc(NC(=O)Nc2nc(C)c(C(=O)NCc3ccc(Cl)c(Cl)c3)s2)cc1
0

hey, is selectivity ratio for this one >= 5? C/C(=N\NC(=N)N)c1ccc(NC(=O)Nc2ccc(/C(C)=N/NC(=N)N)cc2)cc1
1

hey, is selectivity ratio for this one >= 5? COC(=O)c1sc(-c2ccc(Cl)cc2)nc1C(Br)Br
1

Form field: selectivity ratio at least 5? Entry: COC(=O)c1sc(NC(=O)Nc2ccc(C(C)=O)cc2)nc1C
1

Entry Nc1ccc(SCc2csc(-c3ccc(Cl)cc3)n2)cc1 : is its selectivity ratio no less than 5?
1

Is selectivity ratio for c1ccc(-c2cc(-c3ccccc3)[nH]n2)cc1 at or above 5?
0

Tell me whether selectivity ratio is at least 5 here: Nc1ccccc1SCc1csc(-c2ccc(Cl)cc2)n1
0

Exam item: decide whether the reported selectivity ratio for COC(=O)c1sc(N(Cc2ccc(C(C)=O)cc2)Cc2ccc(C(C)=O)cc2)nc1C is at least 5.
1

Is selectivity ratio for Nc1ccc(SCc2csc(-c3ccccc3Cl)n2)cc1 at or above 5?
0

Decide: is the reported value of selectivity ratio for Nc1ccc(SCc2csc(-c3ccccc3)n2)cc1 equal to or greater than 5?
0

Textbook exercise: given the entry C/C(=N\NC(=N)N)c1ccc(NC(=O)Nc2nc(C)c(C(=O)NCc3ccc(Cl)cc3Cl)s2)cc1 , state whether its selectivity ratio is greater than or equal to 5.
0

Reported selectivity ratio at or above 5? Nc1ccccc1SCc1csc(-c2ccccc2Cl)n1
0

Evaluate Cc1nc(-n2nc(-c3ccccc3)cc2-c2ccccc2)sc1C(=O)NCc1ccc(Cl)c(Cl)c1 : selectivity ratio at minimum 5?
1

# check: selectivity ratio of Nc1ccccc1SCc1csc(-c2ccccc2)n1 is greater than or equal to 5
0

====

- System: Yellow fever virus
- method.summary: Antiviral activity against IRES-luciferase tagged Yellow fever virus in BHK15 cells assessed as reduction of luciferase activity after 36 hrs
- Type: functional, organism-based
- test.conditions: BHK15, 36 h
Please respond with reported EC50 for every item in the list.

So what does the record say about EC50 for Cc1nc(-n2nc(-c3ccccc3)cc2-c2ccccc2)sc1C(=O)/C=C/c1ccc(Cl)c(Cl)c1 ?
51 µM

Quick one: EC50 of Cc1nc(-c2ccc(Cl)cc2)sc1C(=O)NCc1ccc(Cl)c(Cl)c1 ?
> 50 µM

Name the reported EC50 value associated with the compound Nc1ccccc1SCc1csc(-c2ccccc2)n1
46 µM

Recorded EC50 for Cc1nc(-n2nc(-c3ccccc3)cc2-c2ccccc2)sc1C(=O)OCC12CC3CC(CC(C3)C1)C2 , please?
> 50 µM

Looking for the measured EC50 of CC(=O)c1ccc(NC(=O)Nc2nc(C)c(C(=O)NCc3ccc(Cl)cc3Cl)s2)cc1 , can you help?
> 50 µM

Consider the compound shown here: Clc1ccc(-c2nc(CSc3cccc(Cl)c3)cs2)cc1 What is its recorded EC50?
> 50 µM

Which EC50 value belongs to CCCCCCCCOC(=O)c1sc(-n2nc(-c3ccccc3)cc2-c2ccccc2)nc1C ?
> 50 µM

Which EC50 reading was recorded for the compound Nc1ccc(SCc2csc(-c3ccccc3Cl)n2)cc1 ?
40 µM

Returns the measured EC50 for the input compound. Input: Cc1nc(-n2nc(-c3ccccc3)cc2-c2ccccc2)sc1C(=O)OCc1ccc(I)cc1
> 50 µM

Query: EC50; subject: COC(=O)c1sc(NC(=O)Nc2ccc(/C(C)=N/NC(=N)N)cc2)nc1C
> 50 µM

For the compound shown here, Cc1nc(-n2nc(-c3ccccc3)cc2-c2ccccc2)sc1C(=O)O , give the reported EC50.
> 50 µM

Which EC50 value belongs to Cc1csc(-c2ccc(Cl)cc2)n1 ?
> 50 µM

For the compound COC(=O)c1sc(-c2ccc(Cl)cc2)nc1C , what EC50 is on record?
> 50 µM

Which value of EC50 has been reported for Cc1nc(-c2ccc(Cl)cc2)sc1C(=O)OCC12CC3CC(CC(C3)C1)C2 in the records?
> 50 µM

For the compound CCOC(=O)c1sc(-n2nc(-c3ccccc3)cc2-c2ccccc2)nc1C , what EC50 is on record?
> 50 µM

Looking for the measured EC50 of ClCc1csc(-c2ccc(Cl)cc2)n1 , can you help?
> 50 µM

Please give the measured EC50 for this compound: COC(=O)c1sc(N(Cc2ccc(C(C)=O)cc2)C(C)=O)nc1C
> 50 µM

Item under review: COC(=O)c1sc(-c2ccccc2)nc1C . Reported EC50?
> 50 µM

Can you look up the measured EC50 of c1ccc(-c2cc(-c3ccccc3)[nH]n2)cc1 for me?
44 µM

Record request: EC50 value, item Nc1ccc(SCc2csc(-c3ccc(Cl)cc3)n2)cc1
29 µM

Entry under review: COC(=O)c1sc(NC(=O)Nc2ccc(C(C)=O)cc2)nc1C . Reported EC50?
13.9 µM

Requested field: EC50. Item: CC(=O)c1ccc(NC(=O)Nc2nc(C)c(C(=O)O)s2)cc1
> 50 µM

Value lookup for EC50; key = COC(=O)c1sc(NC(=O)Nc2ccc(/C(C)=N/NC(N)=O)cc2)nc1C
> 50 µM

====

Could you please report measured pEC50 for the items listed next?
- System: Yellow fever virus
- method.summary: Antiviral activity against IRES-luciferase tagged Yellow fever virus in BHK15 cells assessed as reduction of luciferase activity after 36 hrs
- Assay type: functional, organism-based
- test.conditions: BHK15, 36 h
Expect pEC50 as a plain number equal to -log10 of the molar concentration.

Dear colleague, I am looking for the recorded pEC50 of the following compound: Cc1nc(-n2nc(-c3ccccc3)cc2-c2ccccc2)sc1C(=O)NCc1ccc(Cl)c(Cl)c1
5.30

What pEC50 value was documented for this compound, Nc1ccccc1SCc1csc(-c2ccccc2Cl)n1 ?
4.34

Dear colleague, I am looking for the recorded pEC50 of the following compound: CC(=O)c1ccc(NC(=O)Nc2nc(C)c(C(=O)NCc3ccc(Cl)c(Cl)c3)s2)cc1
4.43

Please report the recorded pEC50 for C/C(=N\NC(=N)N)c1ccc(NC(=O)Nc2ccc(/C(C)=N/NC(=N)N)cc2)cc1 .
4.89

Report pEC50 for Nc1ccc(SCc2csc(-c3ccccc3)n2)cc1 please.
4.43

====

- method.summary: Cytotoxicity against BHK15 cells assessed as cell viability after 36 hrs by MTT assay
- Format: cell-based, Mesocricetus auratus
- test.conditions: hamster, bhk15, 36 h
test.readout: CC50 (µM)
Provide only the numeric value, understood in µM.

What value of CC50 has been recorded for this entry: COC(=O)c1sc(-c2ccc(Cl)cc2)nc1C(Br)Br
153

Please report the recorded CC50 for C/C(=N\NC(=N)N)c1ccc(NC(=O)Nc2nc(C)c(C(=O)NCc3ccc(Cl)cc3Cl)s2)cc1 .
154

Looking for the measured CC50 of Nc1ccc(SCc2csc(-c3ccc(Cl)cc3)n2)cc1 , can you help?
151

Query: CC50; subject: C/C(=N\NC(=N)N)c1ccc(NC(=O)Nc2ccc(/C(C)=N/NC(=N)N)cc2)cc1
398

Looking for the measured CC50 of CC(=O)c1ccc(NC(=O)Nc2nc(C)c(C(=O)NCc3ccc(Cl)c(Cl)c3)s2)cc1 , can you help?
138

Please report the recorded CC50 for COC(=O)c1sc(N(Cc2ccc(C(C)=O)cc2)Cc2ccc(C(C)=O)cc2)nc1C .
200

If you can, please state the reported CC50 value of Nc1ccc(SCc2csc(-c3ccccc3)n2)cc1 .
155

Could you share which CC50 value was measured for Nc1ccc(SCc2csc(-c3ccccc3Cl)n2)cc1 ?
131

State the recorded CC50 for this entry: c1ccc(-c2cc(-c3ccccc3)[nH]n2)cc1
123

Which value of CC50 has been reported for Nc1ccccc1SCc1csc(-c2ccc(Cl)cc2)n1 in the records?
61

Return reported CC50; argument: Cc1nc(-n2nc(-c3ccccc3)cc2-c2ccccc2)sc1C(=O)NCc1ccc(Cl)c(Cl)c1
186

====

- method.summary: Cytotoxicity against BHK15 cells assessed as cell viability after 36 hrs by MTT assay
- Assay type: cell-based, Mesocricetus auratus
- test.conditions: hamster, bhk15, 36 h
test.readout: CC50 (µM)
Lab book: enter the figure in µM, no units written.

Using the record for Nc1ccccc1SCc1csc(-c2ccccc2)n1 , report its CC50.
119

// lookup CC50 for Cc1nc(-n2nc(-c3ccccc3)cc2-c2ccccc2)sc1C(=O)/C=C/c1ccc(Cl)c(Cl)c1
70

So what's the measured CC50 for this one? COC(=O)c1sc(NC(=O)Nc2ccc(C(C)=O)cc2)nc1C
155

Would you kindly share the measured CC50 for Nc1ccccc1SCc1csc(-c2ccccc2Cl)n1 ?
133
